Below is a list of entries, each paired with its recorded Control value.
Test system: L1210
Assay: Effect of initial screen concentration of 100 uM on the growth of L1210 Murine Leukemia cells
Type: functional, Mus musculus
State just the number; it will be interpreted in %.

Fill blank: measured Control of the compound OC[C@H]1O[C@@H](n2c(Cl)nc3cc(Cl)c(Cl)cc32)[C@H](O)[C@@H]1O is ____.
76

Further cases:
// lookup Control for [N-]=[N+]=NC[C@H]1OC(n2c(Cl)nc3cc(Cl)c(Cl)cc32)[C@H](O)[C@@H]1O (stereo not given in full)
29

Given the compound CSC[C@H]1OC(n2c(Cl)nc3cc(Cl)c(Cl)cc32)[C@H](O)[C@@H]1O (stereo not given in full) , what is its reported Control?
73

---

System: L1210
Assay: Effect of initial screen concentration of 100 uM on the growth of L1210 Murine Leukemia cells
Assay type: functional, Mus musculus
Catalogue of Control values
Give the number; % is assumed, so skip it.

These solved cases illustrate the format of a correct answer.
Control for O[C@@H]1[C@@H](CCl)OC(n2c(Cl)nc3cc(Cl)c(Cl)cc32)[C@@H]1O (some centres not stated) ?
73

# query: Control of entry CCOC[C@H]1OC(n2c(Cl)nc3cc(Cl)c(Cl)cc32)[C@H](O)[C@@H]1O (some centres not stated)
9

Reported Control for CCCCOC[C@H]1OC(n2c(Cl)nc3cc(Cl)c(Cl)cc32)[C@H](O)[C@@H]1O (some centres not stated) : what is it?
64

What value of Control has been recorded for this entry: CC(=O)OC1C(CBr)OC(n2c(Cl)nc3cc(Cl)c(Cl)cc32)C1OC(C)=O (configuration not stated)
94

Others:
Control lookup needed for O[C@@H]1[C@@H](CBr)OC(n2c(Cl)nc3cc(Cl)c(Cl)cc32)[C@@H]1O (some centres not stated) , thanks.
54

# lookup: Control of COC[C@H]1OC(n2c(Cl)nc3cc(Cl)c(Cl)cc32)[C@H](O)[C@@H]1O (some centres not stated)
4

Item O[C@@H]1[C@@H](CF)OC(n2c(Cl)nc3cc(Cl)c(Cl)cc32)[C@@H]1O (some centres not stated) has what recorded Control?
81
